target: human calcitonin receptor (CTR) (Homo sapiens, UniProt P30988); assay: Calcitonin receptor (CTR) cAMP Assay; conditions: COS7-human CTR Clone #2 cells, cAMP dynamic 2 kit; read-out: Calcitonin Receptor cAMP Stimulation Activity: EC50
Sequence (P30988 25-474): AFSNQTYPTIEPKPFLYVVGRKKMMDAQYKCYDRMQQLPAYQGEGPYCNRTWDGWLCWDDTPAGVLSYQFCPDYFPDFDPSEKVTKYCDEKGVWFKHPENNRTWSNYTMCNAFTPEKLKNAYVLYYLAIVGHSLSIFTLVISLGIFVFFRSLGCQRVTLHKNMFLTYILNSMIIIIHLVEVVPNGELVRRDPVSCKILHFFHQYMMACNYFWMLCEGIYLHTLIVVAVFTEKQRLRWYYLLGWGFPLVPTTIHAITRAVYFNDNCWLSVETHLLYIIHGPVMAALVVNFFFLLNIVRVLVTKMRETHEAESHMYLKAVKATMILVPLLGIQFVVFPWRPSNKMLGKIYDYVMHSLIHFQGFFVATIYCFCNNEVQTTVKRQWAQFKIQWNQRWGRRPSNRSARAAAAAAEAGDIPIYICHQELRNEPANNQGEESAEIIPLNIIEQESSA
EC50 strictly under 0.05 µM means Met; at 0.05 µM or over means Not met.

Determine if Cc1cc(-c2c(CCC3CCOCC3)nc3c(c2-c2ccc4c(c2)oc(=O)n4Cc2ncc(Cl)cc2F)C(=O)N2CCC[C@@]32C)ccn1 shows EC50 strictly lower than 0.05 µM.
Not met

Dear colleague, could you confirm whether EC50 of Cc1nnc(-c2c(CCC3CCOCC3)nc3c(c2C2CCN(C(=O)Cc4ccc(F)c(F)c4)C2)S(=O)(=O)CC3C(C)C)o1 (stereo not drawn) falls below 0.05 µM? Thanks.
Not met

Determine if Cc1nnc(-c2c(CCc3ccc(F)cc3)nc3c(c2-c2ccc(C(=O)NCc4ccc(F)c(F)c4)s2)C(=O)N[C@H]3C(C)C)o1 shows EC50 strictly lower than 0.05 µM.
Met

Quick check: does Cc1nnc(-c2c(CCC3CCOCC3)nc3c(c2-c2cc4ccnc(N[C@@H]5CCc6ncccc65)c4s2)C(=O)N2CCC[C@@H]32)o1 have EC50 under 0.05 µM?
Met

Could you please tell me whether EC50 recorded for Cc1nnc(-c2c(CCc3ccc(F)cc3)nc3c(c2-c2ccc(C(=O)NCc4ccc(F)c(F)c4)s2)C(=O)N2CCOC[C@@H]32)o1 is less than 0.05 µM?
Met
